meta.source: patent US20250326839A1

Target: T1, human TREM2 (human, UniProt Q9NZC2 19-174, limits assumed)
T1 construct: also called triggering receptor expressed on myeloid cells 2
T1 sequence: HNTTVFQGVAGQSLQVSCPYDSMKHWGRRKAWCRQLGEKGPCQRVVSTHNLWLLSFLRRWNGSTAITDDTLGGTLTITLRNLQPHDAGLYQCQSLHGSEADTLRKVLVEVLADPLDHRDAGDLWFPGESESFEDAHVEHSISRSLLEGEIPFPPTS
Assay: 2nd screen, 100 nM

| binder | Binding Signal |
| --- | --- |
| V20 (antibody, V domains shown, also called 6E7 variant V20) VH: EVQLVQSGAEVKKPGESLKISCKGSGYSFTSYWIAWVRQMPGKGLEWMGRIYPGDSDTRYSPSFQGQVTISADKSISTAYLQWSSLKASDTAMYFCARQRTFYYDSSDYFDYWGQGTLVTVSS VL: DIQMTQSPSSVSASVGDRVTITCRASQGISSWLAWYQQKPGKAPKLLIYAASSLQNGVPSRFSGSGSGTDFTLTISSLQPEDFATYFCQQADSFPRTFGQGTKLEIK | 0.52 fold over 6E7 parental antibody |
| V22 (antibody, V domains shown, also called 6E7 variant V22) VH: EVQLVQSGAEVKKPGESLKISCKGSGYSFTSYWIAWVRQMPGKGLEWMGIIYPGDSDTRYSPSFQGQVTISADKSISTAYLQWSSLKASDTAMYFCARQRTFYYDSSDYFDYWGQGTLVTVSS VL: DIQMTQSPSSVSASVGDRVTITCRASQGISSWLAWYQQKPGKAPKLLIYRASSLQNGVPSRFSGSGSGTDFTLTISSLQPEDFATYFCQQADSFPRTFGQGTKLEIK | 0.71 fold over 6E7 parental antibody |
| V6 (antibody, V domains shown, also called 6E7 variant V6) VH: EVQLVQSGAEVKKPGESLKISCKGSGYSFTSMWIAWVRQMPGKGLEWMGIIYPGDSDTRYSPSFQGQVTISADKSISTAYLQWSSLKASDTAMYFCARQRTFYYDSSDYFDYWGQGTLVTVSS VL: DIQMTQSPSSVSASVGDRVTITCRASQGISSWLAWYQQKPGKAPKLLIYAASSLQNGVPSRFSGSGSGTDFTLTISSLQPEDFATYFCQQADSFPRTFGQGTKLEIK | 0.56 fold over 6E7 parental antibody |
